experiment: in vitro; settings: human, heart valve leaflets, AVG % CONTRL, Example 3; 12 μg/ml imipenem + rifampin 10 μg/ml
property-measured: viability (%)
The response must be a number in % with no trailing unit.

*Q* Which measured viability value corresponds to C[C@@H](O)[C@H]1C(=O)N2C(C(=O)O)=C(SCCN=CN)C[C@H]12 [Imipenem, imipenem] ?
*A* 86

---

experiment: in vitro; details: human, heart valve leaflets, AVG % CONTRL, Example 3; 24 μg/ml imipenem + rifampin 10 μg/ml
property-measured: viability (%)
The response must be a number in % with no trailing unit.

*Q* Which measured viability value corresponds to C[C@@H](O)[C@H]1C(=O)N2C(C(=O)O)=C(SCCN=CN)C[C@H]12 ?
*A* 90
